- Test system: Saccharomyces cerevisiae
- MEASUREMENT PROTOCOL: protein stability index of tFT-peptide fusion (C-terminal peptide) (PSI (0-1 scale)); higher = more stable (slower turnover)
- CONDITION DETAILS: genetic background: wild type; temperature: 37 C
Recorded protein stability index determines the group label, using low class: < 0.4; middle class: ≥ 0.4 and < 0.5; high class: ≥ 0.5

Use these answered entries as a reference point.
MONOMER SEQUENCE: LLVYLYFFFSCS
ASSAYED TARGET: Saccharomyces cerevisiae
GROUP: middle class
//
MONOMER SEQUENCE: AFVALCACVIFV
ASSAYED TARGET: Saccharomyces cerevisiae
GROUP: low class
//
MONOMER SEQUENCE: SIQRKIRRMKEN
ASSAYED TARGET: Saccharomyces cerevisiae
GROUP: high class
//
MONOMER SEQUENCE: YVCVVSVLLGLL
ASSAYED TARGET: Saccharomyces cerevisiae
GROUP: low class
//
MONOMER SEQUENCE: ARWGVGLWRGAS
ASSAYED TARGET: Saccharomyces cerevisiae
GROUP: high class

State the class of the sequence shown: `LSRFRYFVLTSL`
low class

Another sequence: `QCSVRLKEIQFS`
middle class

Another sequence: `LPLHTLLLCPPV`
middle class

Another sequence: `VARLGGRIGWEG`
high class

Another sequence: `KLRMGRYIVRII`
low class

Another sequence: `GGSIKRFVILVL`
middle class

Another sequence: `HRHCVSSYQKVS`
high class

Another sequence: `SLFPHIFFFFFA`
low class

Another sequence: `IVFGWGVEWGRL`
high class

Another sequence: `FTFPLPPSLLLV`
low class

###

- Tested on: Saccharomyces cerevisiae
- MEASUREMENT PROTOCOL: protein stability index of tFT-peptide fusion (C-terminal peptide) (PSI (0-1 scale)); higher = more stable (slower turnover)
- CONDITION DETAILS: genetic background: wild type; temperature: 30 C
PROPERTY NAME: protein stability index
API doc: respond with a numeric literal and nothing else, no unit.

MONOMER SEQUENCE: YGNSFLVRPPGD
protein stability index: 0.712

MONOMER SEQUENCE: VVLSCGIPGCVF
protein stability index: 0.572

MONOMER SEQUENCE: PPIFPSPPPPAD
protein stability index: 0.61

MONOMER SEQUENCE: PPSASLAPFLSP
protein stability index: 0.722

MONOMER SEQUENCE: VDRAFVWYLRDL
protein stability index: 0.695

Read the next record carefully.
Item `ISEINQKGKNRE` has what recorded protein stability index?
0.675

###

- Tested on: Saccharomyces cerevisiae
- MEASUREMENT PROTOCOL: protein stability index of tFT-peptide fusion (C-terminal peptide) (PSI (0-1 scale)); higher = more stable (slower turnover)
- CONDITION DETAILS: genetic background: wild type; temperature: 30 C
protein stability index overview
API doc: respond with a numeric literal and nothing else, no unit.

Some solved entries appear below for comparison.
MONOMER SEQUENCE: KALRELQAEMGL [SNF7 C-terminal 12 aa]
protein stability index: 0.688
--
MONOMER SEQUENCE: AWIADLDHTVQP [CHS6 C-terminal 12 aa]
protein stability index: 0.708
--
MONOMER SEQUENCE: VLREEVKKEEEN [KRS1 C-terminal 12 aa]
protein stability index: 0.7
--
MONOMER SEQUENCE: NVDVVTPNSIFI [TMA17 C-terminal 12 aa]
protein stability index: 0.698
--
MONOMER SEQUENCE: SGFQFPFFGEEK [MRPL7 C-terminal 12 aa]
protein stability index: 0.695
--
MONOMER SEQUENCE: YPFTISYISPPY [YPR169W-A C-terminal 12 aa]
protein stability index: 0.702

Item QPKIEINVDQYD [SPC1 C-terminal 12 aa] has what recorded protein stability index?
0.692

###

protein stability index overview
- Test system: Saccharomyces cerevisiae
- MEASUREMENT PROTOCOL: protein stability index of tFT-peptide fusion (C-terminal peptide) (PSI (0-1 scale)); higher = more stable (slower turnover)
- CONDITION DETAILS: genetic background: das1 deletion; temperature: 30 C
API doc: respond with a numeric literal and nothing else, no unit.

Some solved entries appear below for comparison.
MONOMER SEQUENCE: EEAREEFENIAL [SMI1 C-terminal 12 aa]
RECORDED MEASUREMENT: 0.679
--
MONOMER SEQUENCE: PPASESNKGINE [YDR008C C-terminal 12 aa]
RECORDED MEASUREMENT: 0.694
--
MONOMER SEQUENCE: IDNPEACEMCSG [RNR1 C-terminal 12 aa]
RECORDED MEASUREMENT: 0.702

Read the next record carefully.
Tell me reported protein stability index for HKSLKLAKKDKK [AGE1 C-terminal 12 aa] , tested with Saccharomyces cerevisiae.
0.684

###

protein stability index overview
- System: Saccharomyces cerevisiae
- MEASUREMENT PROTOCOL: protein stability index of tFT-peptide fusion (C-terminal peptide) (PSI (0-1 scale)); higher = more stable (slower turnover)
- CONDITION DETAILS: genetic background: wild type; temperature: 37 C

MONOMER SEQUENCE: VIRSIVSAYMIC
protein stability index: 0.334
--
MONOMER SEQUENCE: YLFFHMVVLVVV
protein stability index: 0.149
--
MONOMER SEQUENCE: KVFWRPAWVAEV
protein stability index: 0.512
--
MONOMER SEQUENCE: LLFYSYFFFVLY
protein stability index: 0.286
--
MONOMER SEQUENCE: SRGRVLRLLLLV
protein stability index: 0.0678
--
MONOMER SEQUENCE: FVVQSLNQMRLN
protein stability index: 0.62
--
MONOMER SEQUENCE: LCSVWVGIVLLC
protein stability index: 0.107

Item `ALLMVCFGFSLV` has what recorded protein stability index?
0.508

###

protein stability index overview
- Tested on: Saccharomyces cerevisiae
- MEASUREMENT PROTOCOL: protein stability index of tFT-peptide fusion (C-terminal peptide) (PSI (0-1 scale)); higher = more stable (slower turnover)
- CONDITION DETAILS: genetic background: wild type; temperature: 30 C
API doc: respond with a numeric literal and nothing else, no unit.

Some solved entries appear below for comparison.
MONOMER SEQUENCE: FQAVSPRFLVLP
protein stability index: 0.64
--
MONOMER SEQUENCE: VVGSVFGGVRAA
protein stability index: 0.708
--
MONOMER SEQUENCE: SRKNGLQRKQKT
protein stability index: 0.728
--
MONOMER SEQUENCE: DFVGCSGRGSFV
protein stability index: 0.72
--
MONOMER SEQUENCE: PPPSPFLPPRAP
protein stability index: 0.709
--
MONOMER SEQUENCE: PPILLAYITPPM
protein stability index: 0.656

Read the next record carefully.
Item `GRGEDLVRRHTP` has what recorded protein stability index?
0.668

###

protein stability index overview
- Tested on: Saccharomyces cerevisiae
- MEASUREMENT PROTOCOL: protein stability index of tFT-peptide fusion (C-terminal peptide) (PSI (0-1 scale)); higher = more stable (slower turnover)
- CONDITION DETAILS: genetic background: wild type; temperature: 30 C
API doc: respond with a numeric literal and nothing else, no unit.

MONOMER SEQUENCE: LRSKVKNHAQRH [YLR428C C-terminal 12 aa]
ASSAYED TARGET: Saccharomyces cerevisiae
RECORDED MEASUREMENT: 0.693

MONOMER SEQUENCE: MRNNNDTTFKSF [YNL013C C-terminal 12 aa]
ASSAYED TARGET: Saccharomyces cerevisiae
RECORDED MEASUREMENT: 0.698

MONOMER SEQUENCE: EIKHVFTGVYGG [ASP1 C-terminal 12 aa]
ASSAYED TARGET: Saccharomyces cerevisiae
RECORDED MEASUREMENT: 0.686

MONOMER SEQUENCE: ERRLNAIINGEV [YTH1 C-terminal 12 aa]
ASSAYED TARGET: Saccharomyces cerevisiae
RECORDED MEASUREMENT: 0.685

MONOMER SEQUENCE: VEVLENLQSVLK [ATP16 C-terminal 12 aa]
ASSAYED TARGET: Saccharomyces cerevisiae
RECORDED MEASUREMENT: 0.713

MONOMER SEQUENCE: FELVQPKGRRKH [TSR2 C-terminal 12 aa]
ASSAYED TARGET: Saccharomyces cerevisiae
RECORDED MEASUREMENT: 0.686

MONOMER SEQUENCE: VPLGPKPDISRL [GTO1 C-terminal 12 aa]
ASSAYED TARGET: Saccharomyces cerevisiae
RECORDED MEASUREMENT: 0.712

MONOMER SEQUENCE: QIRSVFSGVYGG [ASP3-1 C-terminal 12 aa]
ASSAYED TARGET: Saccharomyces cerevisiae
RECORDED MEASUREMENT: 0.689

Item GLGDFGDRYYCV [FUR1 C-terminal 12 aa] has what recorded protein stability index?
0.697

Another sequence: ENLENKINNLSK [STF1 C-terminal 12 aa]
0.698

Another sequence: NVPSFGQDELDQ [MPS3 C-terminal 12 aa]
0.688

Another sequence: TKPNNGLNITNY [MTL1 C-terminal 12 aa]
0.716
